Data credit: PubChem BioAssay (Tox21)

target: Acetylcholinesterase (Homo sapiens) (UniProt P22303); experiment: Acetylcholinesterase (AChE) small molecule antagonists: enzyme-based qHTS assay with human liver microsomes (AID 1347399); conditions: qHTS inhibition; series mostly up to 115 µM; further: nearly all actives have a fitted effect of over 60% in size
Sequence (P22303 whole entry, looked up): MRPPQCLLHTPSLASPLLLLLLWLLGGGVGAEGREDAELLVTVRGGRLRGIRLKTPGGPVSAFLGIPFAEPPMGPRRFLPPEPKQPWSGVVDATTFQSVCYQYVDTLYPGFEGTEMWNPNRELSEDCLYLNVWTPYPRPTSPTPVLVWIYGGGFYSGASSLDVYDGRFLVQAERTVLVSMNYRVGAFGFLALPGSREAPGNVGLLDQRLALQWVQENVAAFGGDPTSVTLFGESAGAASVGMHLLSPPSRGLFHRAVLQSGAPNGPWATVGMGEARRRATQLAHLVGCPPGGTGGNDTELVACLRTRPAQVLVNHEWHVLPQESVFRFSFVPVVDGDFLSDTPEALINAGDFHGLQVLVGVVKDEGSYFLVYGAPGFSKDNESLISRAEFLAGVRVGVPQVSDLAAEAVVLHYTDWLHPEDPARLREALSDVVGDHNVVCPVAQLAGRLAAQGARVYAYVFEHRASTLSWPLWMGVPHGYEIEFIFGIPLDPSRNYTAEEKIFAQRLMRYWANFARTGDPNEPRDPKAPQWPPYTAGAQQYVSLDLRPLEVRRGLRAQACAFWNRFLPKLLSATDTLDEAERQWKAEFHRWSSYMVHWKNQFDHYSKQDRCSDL
Activity calls are given as the source filed them. The call rests on the fitted dose curve.
# valid calls are active, inactive; nothing else

Please review the entries below; each comes with its answer.
compound | label_value
N=c1nc(N2CCCCC2)cc(N)n1O | inactive
C=CCOC(=O)CCC1CCCCC1 | inactive
CCCCOC(=O)CC(CC(=O)OCCCC)(OC(C)=O)C(=O)OCCCC | inactive
Cc1ccccc1N=O | inactive
CC1CCC2CC1C2(C)C (centres undefined) | inactive

*Q* For this compound, state the assay outcome: CCCCNC(=O)NCCCC
*A* inactive

*Q* Name the outcome recorded for CCc1cccc2c(CCO)c[nH]c12 in the assay.
*A* inactive

*Q* Recorded call for NS(=O)(=O)c1ccc(Cl)c(S(N)(=O)=O)c1 ?
*A* inactive

*Q* Called result for O=C(O)c1ccc(O)cc1O
*A* inactive

*Q* Could you kindly confirm the outcome this assay logged for O=C(Nc1ccccc1)c1cc([N+](=O)[O-])ccc1Cl ?
*A* inactive

*Q* Which outcome was assigned to CC(C)OC=O in this test?
*A* inactive

*Q* For CCc1oc2ccccc2c1C(=O)c1cc(Br)c(O)c(Br)c1 , what call appears in the results of this test?
*A* inactive

*Q* Which result was noted for this compound in the test: CC(=O)Nc1ccc(OCC(O)CNC(C)C)cc1 (centres undefined)
*A* inactive
